MEASUREMENT TARGET: JAK1 (recombinant purified GST-tagged catalytic domain) (Homo sapiens (Human), UniProt P23458);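 also: biochemical assay with HTRF read-out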
Sequence (P23458 875-1153): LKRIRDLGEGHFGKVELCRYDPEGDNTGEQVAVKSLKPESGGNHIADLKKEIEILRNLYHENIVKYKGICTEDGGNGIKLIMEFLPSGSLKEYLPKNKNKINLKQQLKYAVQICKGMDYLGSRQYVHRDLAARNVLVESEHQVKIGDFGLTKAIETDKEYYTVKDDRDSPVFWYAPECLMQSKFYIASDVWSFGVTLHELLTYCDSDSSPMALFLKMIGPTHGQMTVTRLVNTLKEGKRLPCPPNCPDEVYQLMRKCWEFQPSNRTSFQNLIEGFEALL
As shown below, each of these molecules has a reported IC50 value.
MEASURED ATTRIBUTE: IC50 (nM)

> print(dat)
                                    molecule  units.text  reported.value
 1  CN(C)[C@@H]1CC[C@H](n2cc(C(N)=O)c(Nc3ccc(S(=O)(=O)C(F)(F)F)cc3)n2)[C@@H](C#N)C1 (mixture of isomers)          nM             0.5
 2  CS(=O)(=O)N[C@@H]1CC[C@H](n2cc(C(N)=O)c(Nc3ccc(F)cc3)n2)[C@@H](C#N)C1 (mixture of isomers)          nM             0.9
 3  N#C[C@H]1CC[C@H](NCc2ccccc2)C[C@@H]1n1cc(C(N)=O)c(Nc2ccc(F)cc2)n1 (mixture of isomers)          nM               4
 4  CC1(C)CN(C(=O)[C@H]2CC[C@H](n3cc(C(N)=O)c(Nc4ccc(Cl)cc4)n3)[C@@H](C#N)C2)C1 (single isomer, unassigned)          nM               6
 5  N#C[C@@H]1CCCC(F)[C@@H]1n1cc(C(N)=O)c(Nc2ccccc2)n1 (stereo partly drawn)          nM              67
 6  CC(C)(C)OC(=O)NCC1CC[C@H](C#N)[C@@H](n2cc(C(N)=O)c(Nc3ccc(F)cc3)n2)C1 (single isomer, unassigned) [Example 11-10]          nM             110
 7  CC1(C)CN([C@H]2CC[C@H](n3cc(C(N)=O)c(Nc4ccnc(F)c4)n3)[C@@H](C#N)C2)C1 (single isomer, unassigned)          nM               1
 8  N#C[C@H]1CC[C@@H](NCc2ccccc2)C[C@@H]1n1cc(C(N)=O)c(Nc2ccc(F)cc2)n1 (mixture of isomers)          nM              11
 9  C[C@]1(C#N)CCCC[C@@H]1n1cc(C(N)=O)c(Nc2ccc(F)cc2)n1 (mixture of isomers)          nM               4
10  C[C@]1(C#N)CC[C@@H](F)C[C@@H]1n1cc(C(N)=O)c(Nc2ccc(F)cc2)n1 (mixture of isomers)          nM               3
11  N#C[C@@H]1CCC2(C[C@@H]1n1cc(C(N)=O)c(Nc3ccccc3)n1)OCCO2 (single isomer, unassigned) [Example 45-2]          nM            0.85
12  CS(=O)(=O)c1ccc(Nc2nn([C@H]3CCC[C@H]3C#N)cc2C(N)=O)cc1 (mixture of isomers)          nM               5
13  N#C[C@@H]1CCC2(C[C@@H]1n1cc(C(N)=O)c(Nc3ccccc3)n1)OCCO2 (single isomer, unassigned) [Example 45-4]          nM              13
14  CN(C)[C@@H]1CC[C@H](C#N)[C@@H](n2cc(C(N)=O)c(Nc3ccc(F)cc3)n2)C1 (mixture of isomers)          nM             305
15  N#C[C@H]1CCCCC1n1cc(C(N)=O)c(Nc2ccc(S(=O)(=O)C(F)F)c(CO)c2)n1 (mixture of isomers)          nM               2
16  CC(C)(C)OC(=O)C1CC[C@H](C#N)[C@@H](n2cc(C(N)=O)c(Nc3ccccc3)n2)C1 (mixture of isomers)          nM               7
17  N#C[C@H]1C[C@@H](NCC2(O)CC2)CC[C@@H]1n1cc(C(N)=O)c(Nc2ccc(Cl)cc2)n1 (single isomer, unassigned)          nM               2
18  CN[C@H]1CC[C@H](C#N)[C@@H](n2cc(C(N)=O)c(Nc3ccc(F)cc3)n2)C1 (mixture of isomers)          nM             410
19  CC(C)(C)OC(=O)NCC1CC[C@H](C#N)[C@@H](n2cc(C(N)=O)c(Nc3ccc(F)cc3)n2)C1 (single isomer, unassigned) [Example 11-9]          nM              21
20  C[N+]1([C@H]2CC[C@H](n3cc(C(N)=O)c(Nc4ccc(Cl)cc4)n3)[C@@H](C#N)C2)CCC1          nM               1
21  CC(O)(c1ccc(Nc2nn([C@H]3CCCC[C@@H]3C#N)cc2C(N)=O)cn1)C(F)F (single isomer, unassigned)          nM            0.24
22  CC1(C)CC[C@H](C#N)[C@@H](n2cc(C(N)=O)c(Nc3ccccc3)n2)C1 (mixture of isomers)          nM              54
23  N#C[C@H]1C[C@@H](N2CCC2)CC[C@@H]1n1cc(C(N)=O)c(Nc2ccc(OC(F)F)nc2)n1 (single isomer, unassigned)          nM               5
24  N#C[C@H]1C[C@@H](NCC(F)F)CC[C@@H]1n1cc(C(N)=O)c(Nc2ccc(S(=O)(=O)C(F)F)cc2)n1 (single isomer, unassigned)          nM             0.5

###

MEASUREMENT TARGET: JAK2 (recombinant purified GST-tagged catalytic domain) (Homo sapiens (Human))
ASSAY SUMMARY: biochemical
IC50 values, listed per item
MEASURED ATTRIBUTE: IC50 (nM)

COMPOUND	REPORTED VALUE
N#C[C@H]1C[C@@H](C(=O)NCC(F)(F)F)CC[C@@H]1n1cc(C(N)=O)c(Nc2ccc(Cl)cc2)n1 (single isomer, unassigned) [Example 35-22]	218
N#C[C@H]1C[C@@H](O)CC[C@@H]1n1cc(C(N)=O)c(Nc2ccc(Cl)c(Cl)c2)n1 (single isomer, unassigned) [Example 33-20]	20
N#C[C@H]1CCCCC1n1cc(C(N)=O)c(Nc2ccc(S(=O)(=O)C(F)F)cc2)n1 (mixture of isomers) [Example 17-9]	5
N#C[C@H]1CC(N2CCC[C@@H]2CF)CC[C@@H]1n1cc(C(N)=O)c(Nc2ccc(S(=O)(=O)C(F)(F)F)cc2)n1 (single isomer, unassigned) [Example 28-156]	14
N#C[C@H]1CCCC[C@@H]1n1cc(C(N)=O)c(Nc2ccc(C=O)cc2)n1 (single isomer, unassigned) [Example 17-25]	3
CN[C@@H]1CC[C@H](n2cc(C(N)=O)c(Nc3ccc(Cl)cc3)n2)[C@@H](C#N)C1 (single isomer, unassigned) [Example 28-42]	36

###

MEASUREMENT TARGET: JAK2 (recombinant purified GST-tagged catalytic domain) (Homo sapiens (Human), UniProt O60674);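 also: biochemical JAK kinase assay with HTRF detection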
Sequence (O60674 849-1124): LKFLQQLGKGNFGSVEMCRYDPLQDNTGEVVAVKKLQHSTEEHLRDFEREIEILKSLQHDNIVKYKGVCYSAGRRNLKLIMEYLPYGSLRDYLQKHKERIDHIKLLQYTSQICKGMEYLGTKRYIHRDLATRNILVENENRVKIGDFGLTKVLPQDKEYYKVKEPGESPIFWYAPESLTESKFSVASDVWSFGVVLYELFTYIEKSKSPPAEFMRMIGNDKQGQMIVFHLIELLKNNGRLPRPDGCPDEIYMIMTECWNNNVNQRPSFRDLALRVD
ASSAY SUMMARY: biochemical
MEASURED ATTRIBUTE: log10 IC50 (log10 of the value in nM)

> print(dat)
                                    molecule  measured.attribute  reported.value
 1  N#C[C@H]1C[C@@H](OC(=O)NC2CCCCC2)CCC1n1cc(C(N)=O)c(Nc2ccc(F)cc2)n1 (mixture of isomers)          log10 IC50            2.21
 2  CN(C1COC1)[C@H]1CC[C@@H](n2cc(C(N)=O)c(Nc3ccc(C(F)(F)F)cc3)n2)[C@H](C#N)C1 (single isomer, unassigned)          log10 IC50            2.03
 3  CN(C)[C@H]1CC[C@H](n2cc(C(N)=O)c(Nc3ccc(C(F)(F)F)cc3)n2)[C@@H](C#N)C1 (single isomer, unassigned)          log10 IC50            1.15
 4  N#C[C@H]1C[C@@H](O)CC[C@@H]1n1cc(C(N)=O)c(Nc2ccc(C(F)(F)F)cc2)n1 (single isomer, unassigned)          log10 IC50            1.95
 5  N#C[C@H]1C[C@@H](NCCC(F)(F)F)CC[C@@H]1n1cc(C(N)=O)c(Nc2ccc(S(=O)(=O)C(F)(F)F)cc2)n1 (single isomer, unassigned)          log10 IC50            1.74
 6  N#C[C@H]1C[C@@H](N2CCC2)CC[C@@H]1n1cc(C(N)=O)c(Nc2ccc(OC(F)(F)F)cc2)n1 (single isomer, unassigned)          log10 IC50            1.36
 7  CC(C)(O)CN[C@H]1CCC(n2cc(C(N)=O)c(Nc3ccc(Cl)cc3)n2)[C@@H](C#N)C1 (single isomer, unassigned)          log10 IC50            1.62
 8  N#C[C@H]1C[C@@H](N2CCC2)CC[C@@H]1n1cc(C(N)=O)c(Nc2ccccc2)n1 (single isomer, unassigned)          log10 IC50            1.59
 9  N#C[C@H]1CCCC(F)[C@@H]1n1cc(C(N)=O)c(Nc2ccccc2)n1 (mixture of isomers)          log10 IC50            1.78
10  CC1(O)CN(C(=O)[C@@H]2CC[C@@H](n3cc(C(N)=O)c(Nc4ccc(Cl)cc4)n3)[C@H](C#N)C2)C1 (single isomer, unassigned)          log10 IC50            1.54
11  CN(C)[C@H]1CC[C@H](n2cc(C(N)=O)c(Nc3ccc(C(F)(F)F)nc3)n2)[C@@H](C#N)C1 (single isomer, unassigned)          log10 IC50            2.16
12  N#C[C@H]1C[C@@H](N2CCC2)CC[C@@H]1n1cc(C(N)=O)c(Nc2ccc(Cl)cc2)n1 (single isomer, unassigned)          log10 IC50            1.61
